# System: LNCaP cells
# experimentSummary: LNCaP cell viability assay (MTS)
# Type: cell-based
# experimentalSetup: Homo sapiens, LNCaP, 48 h, LNCaP cell line
# Procedure: LNCaP cell line was used for the cell viability assay. LNCaP cells were plated in 96-well plates at a density of 5000 cells per well. […] Relative cell numbers were analyzed after 48 hours using 3-(4,5-dimethylthiazol-2-yl)-5-(3-carboxymethoxyphenyl)-2-(4-sulfophenyl)-2H-tetrazolium (MTS) assay (Promega) according to the manufacturer's instructions. The cell viability data was analyzed with GraphPad Prism software. […]
measuredEndpoint: GI50 (µM)

Examples with answers:
compound: O=S(=O)(NCCNS(=O)(=O)c1ccc(F)c(Cl)c1)c1ccc(OC(F)(F)F)cc1 [Compound 96]
testTarget: LNCaP cells
unitTag: µM
GI50: 31
--
compound: CCCc1ccc(S(=O)(=O)NC(CN(C)C)c2ccc(Cl)c(Cl)c2)cc1 (stereo not drawn) [Compound 137]
testTarget: LNCaP cells
unitTag: µM
GI50: 12.3
--
compound: O=S(=O)(N[C@@H](CCO)c1ccccc1)c1ccc(OC(F)(F)F)cc1 [Compound 12]
testTarget: LNCaP cells
unitTag: µM
GI50: 34.7
--
compound: O=S(=O)(NCCCOCCOCc1ccccc1)c1ccc(OC(F)(F)F)cc1 [Compound 89]
testTarget: LNCaP cells
unitTag: µM
GI50: 48

1. CN1CCN(CC(NS(=O)(=O)c2ccc(OC(F)(F)F)cc2)c2ccc(Cl)c(Cl)c2)CC1 (stereo not drawn) [Compound 185]
2. CCOc1ccccc1CNS(=O)(=O)c1ccc(OC(F)(F)F)cc1 [Compound 76]
// query Choose between 1 and 2 : whose measured GI50 value is numerically larger? The response must carry the label of the picked entry.
// result 2
(2: 60 µM, 1: 12.6 µM)

P. O=S(=O)(NCC1(c2ccc(Cl)cc2)CC1)c1ccc(OC(F)(F)F)cc1 [Compound 228]
Q. CC1(C)CC1(CNS(=O)(=O)c1ccc(OC(F)(F)F)cc1)c1ccccc1 (stereo not drawn) [Compound 230]
R. O=S(=O)(NCC1(c2ccc(Cl)c(Cl)c2)CCNC1)c1ccc(OC(F)(F)F)cc1 (stereo not drawn) [Compound 253]
S. CN(C)CC(NS(=O)(=O)c1cccc2ccccc12)c1ccc(Cl)c(Cl)c1 (stereo not drawn) [Compound 145]
// query Provide the items ranked by increasing GI50. Put the labels in the requested order and write them down.
// result R, S, Q, P
(R: 10.7 µM, S: 21.7 µM, Q: 37.3 µM, P: 59.9 µM)

P. CCOC(=O)C(Cc1ccccc1Cl)NS(=O)(=O)c1ccc(OC(F)(F)F)cc1 (stereo not drawn) [Compound 45]
Q. CN(C)CC(NS(=O)(=O)c1ccc(Oc2ccccn2)cc1)c1ccc(Cl)c(Cl)c1 (stereo not drawn) [Compound 211]
R. CN(C)CC(NS(=O)(=O)c1ccc(OC(F)(F)F)c(N)c1)c1ccc(Cl)c(Cl)c1 (stereo not drawn) [Compound 176]
S. CN(C)CC(NS(=O)(=O)c1ccc(Oc2ccccc2C(F)(F)F)cc1)c1ccc(Cl)c(Cl)c1 (stereo not drawn) [Compound 238]
// query Reorder: GI50, max to min. Put the labels in the requested order and write them down.
// result Q, P, R, S
(Q: 75 µM, P: 46 µM, R: 31.4 µM, S: 21.9 µM)
